This listing pairs variants with measured protein stability index.
B1: USP39 (parent)
chain: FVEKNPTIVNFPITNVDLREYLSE

# Variants of: B1
# measurementDescription: protein stability index of a GFP-peptide fusion (GPS, HEK-293T) (PSI 1-6); higher = more stable;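 further: lentivirally expressed fusions sorted by FACS into six bins by GFP to DsRed ratio, PSI derived from sequencing read proportions per bin multiplied by bin number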
# experimentalConditions: c terminus: a fixed tail appended
readout: protein stability index

> print(dat)
             polymersequence  recordedvalue
 1  FVEKNKTIVNFPITNVDLREYLSE           2.76
 2  SVEKNPTIVNFPITNVDLREYLSE           4.11
 3  FYEKNPTIVNFPITNVDLREYLSE           2.62
 4  FVEKNPTIVEFPITNVDLREYLSE           1.99
 5  FVEKNPKIVNFPITNVDLREYLSE           1.74
 6  FVEKNPTINNFPITNVDLREYLSE           1.98
 7  FVEKNPTIVNFPITDVDLREYLSE           1.56
 8  FVEKNPTIVNFPITNVDLRWYLSE           1.77
 9  FVEKNATIVNFPITNVDLREYLSE           3.96
10  FVEKNPTIVNFPIFNVDLREYLSE           1.98
11  FVEKNPTIVKFPITNVDLREYLSE           2.48
12  FVEKNPTIVNFPYTNVDLREYLSE           1.73
13  FVEKNPTIVNFPITNVDLREYLRE           2.02
14  FVEKNPTIVNFGITNVDLREYLSE           2.21
15  FHEKNPTIVNFPITNVDLREYLSE           2.94
16  FVEKNPTIVNFPITNVDLQEYLSE           2.35
17  FSEKNPTIVNFPITNVDLREYLSE           3.02
18  FVEKNPTIVNFPITNVDLREYLSH            2.5
19  FVEKNPTIVNFKITNVDLREYLSE           1.56
20  FVEKNPTIVNFPITNVDLHEYLSE           1.25
21  FVEKNPTIVNFPITNYDLREYLSE           1.62
22  RVEKNPTIVNFPITNVDLREYLSE           3.78

Ref: the supplement of paper PMC10567573
